Measured values drawn from ChEMBL document CHEMBL1201862 for this set.

Test system: HOP-62
protocol notes: NCI tumour cell line growth inhibition, 48 h
Active and inactive are the calls of the source. No stated cut-off is given here; in the data, active = GI50 up to about 1.1 µM and inactive = higher. Where a SMILES comes first, the peptide text is derived from it. [ ]: non-standard residue; d: D form. The star is where a group is joined. ξ: configuration not given here. ξNMe2Val = CC(C)C(C(=O)*)N(C)C; NMeV = CN[CH](C(=O)O)C(C)C; NHBn = c1ccc(CN*)cc1; CH2Cl = ClC*
The categories you may choose from are true (1) for active, false (0) for inactive

Below are worked cases with known answers.
1. CN(C)C(=O)NCCN1CCCCCc2ccccc21 ... false (0)
2. CC(=O)NC(CC(C)C)C(=O)NC(Cc1ccccc1)C(=O)CCl (stereo not drawn) (Ac-Leu-Phe-CH2Cl; configuration not given here) ... false (0)
3. CCC(C)C(=O)OCC(=O)c1ccc(-c2ccccc2)cc1 (configuration not stated) ... false (0)
4. N=C1c2ccccc2C(=O)c2c(NCCNCCO)ccc(O)c21 ... false (0)
5. CC12CCC(=O)N1c1cc([N+](=O)[O-])ccc1N2 (configuration not stated) ... false (0)
6. C=C(C=O)c1c2c(nc3ccccc13)C(=O)c1ccccc1C2=O ... false (0)

For COc1cc(Br)c(/C=N\c2cccc3ccc(OS(=O)(=O)c4cccc([N+](=O)[O-])c4)cc23)cc1OC , what call appears in the results of this test?
false (0)

And then COC1(OC)CCC2C1C1CCC(OC)(OC)C21 (configuration not stated) , what is it?
false (0)

// query: COc1ccc(-c2oc3cc(OC)c(OC)c(O)c3c(=O)c2OC)cc1
false (0)

Next compound: Cc1nsc2cc(Cl)n(C)c(=O)c12
false (0)

Now consider Cn1c(=O)nc2n(-c3ccc(Cl)cc3)c3cc(Cl)ccc3nc-2c1=O .
false (0)

Try this compound next: C=CCc1cc2cccc(OC)c2oc1=O
false (0)

Repeat for the following compound: C[n+]1c(-c2ccc(/C=N/NC(=N)N/N=C/c3ccc(-c4cn5cc(Cl)ccc5[n+]4C)cc3)cc2)cn2cc(Cl)ccc21
false (0)

For COc1cc2c(c(OC)c1OC)-c1ccc(SC)c(=O)cc1[C@@H](NC(=O)c1ccc(Cl)cc1)CC2 then?
true (1)

Ok, now CCCCN(CCCC)C(=O)C(=O)CC(=O)c1ccc(Br)cc1
false (0)

What would you report for CC/C=C/C(=O)CC(O)(C(F)(F)F)C(F)(F)F ?
false (0)

What do you get for C[C@]12Cc3cn[nH]c3C(=O)C1CC[C@@H]1C2CC[C@@]2(C)C1CC[C@@H]2O (some centres not stated) ?
false (0)

Then what about the compound CC(C)C(NC(=O)C(C(C)C)N(C)C)C(=O)N(C)C(C(=O)N1CCCC1C(=O)N1CCCC1C(=O)NCc1ccccc1)C(C)C (configuration not stated) (ξNMe2Val-V[NMeV]PP-NHBn; configuration not given here) ?
true (1)

For CCC(CC)C(=O)OC[n+]1cccc(-c2c(COC(=O)NC(C)C)c(COC(=O)NC(C)C)c3n2CCC3)c1 then?
false (0)

Okay, and Sc1ncnc2c1ncn2C1CCCO1 (configuration not stated) ?
false (0)

====

Tested on: ACHN
protocol notes: NCI tumour cell line growth inhibition, 48 h
Calls of active or inactive are those of the source. Cut-off read from the data, not from the text of the source: active = GI50 up to about 1.1 µM and inactive = higher. Square brackets hold non-standard residues; d marks the D form. Peptide text beside a SMILES is read from it. pGlu = O=C1CC[C@@H](C(=O)O)N1; Thz = O=C(O)[C@@H]1CSCN1
readout name: GI50

Record excerpt, results attached:
1) CC(=O)Nc1ccc(C(=O)NN2C(=O)C(Cl)/C2=C/c2ccco2)cc1 (configuration not stated) ... > 100 µM (inactive)
2) COc1cccc(OCC(=N/NC(=O)c2ccncc2)/N=C/c2ccncc2)c1 ... > 100 µM (inactive)
3) CCN(CC)Cc1cc(Nc2c3ccccc3nc3c4ccccc4n(C)c23)ccc1O ... 11.2 µM (inactive)

Request the reported GI50 associated with O=C1CC[C@@H](C(=O)N2CSC[C@H]2C(=O)O)N1 [PIDOTIMOD] ([pGlu]-[Thz]-OH)
> 100 µM (inactive)

Check O=C1/C(=C/C=C/c2ccccc2)CCC1CNc1ccc(Br)cc1 (configuration not stated) too.
6.53 µM (inactive)

Follow-up item: CC1CC/C(=C\c2ccc(N(C)C)cc2)C2=C1C(c1ccc(N(C)C)cc1)NC(=S)N2 (configuration not stated)
> 100 µM (inactive)

Next: CC(C)C1(NC(=O)C2CC3c4cccc5[nH]cc(c45)CC3N(C)C2)OC2(O)C3CCCN3C(=O)C(Cc3ccccc3)N2C1=O (configuration not stated)
21.4 µM (inactive)

====

Tested on: K562
protocol notes: NCI tumour cell line growth inhibition, 48 h
The source made the active and inactive calls. No stated cut-off is given here; in the data, active = GI50 up to about 1.1 µM and inactive = higher.
readout name: GI50

Record excerpt, results attached:
1. NNC(=O)CNC(=O)c1ccc(Cl)cc1Cl ... > 100 µM (inactive)
2. COC1CCC(OC)C(C2(C3CC(OC)CCC3OC)OC(=O)c3ccccc32)C1 (stereo not drawn) ... 22.2 µM (inactive)

Could you now look at the following compound, please?
Please look up its GI50: Oc1ccc2c3c1OC1c4[nH]c5c(c4CC4(O)C(C2)N(CC2CC2)CC[C@]314)CC1(O)C2Cc3ccc(O)c4c3[C@@]1(CCN2CC1CC1)C5O4 (stereo partly drawn)
25.4 µM (inactive)

====

Recorded measurements of GI50, one per entry
Tested on: CCRF-CEM
protocol notes: NCI tumour cell line growth inhibition, 48 h
The source made the active and inactive calls. No stated cut-off is given here; in the data, active = GI50 up to about 1.1 µM and inactive = higher.

Can you look up the measured GI50 of CC(=O)Oc1cc(S(=O)(=O)Nc2n[nH]c(Nc3ccc(C)cc3)n2)c(S)cc1Cl for me?
94.8 µM (inactive)

CCCC(=O)NC(C(=O)OCC)(N1CCOCC1)C(F)(F)F (centres undefined) ?
> 100 µM (inactive)

Repeat with CCO/C(=N/S(=O)(=O)C(F)(F)F)N(C(C)C)C(C)C
> 100 µM (inactive)

Now give it for O=c1[nH]c2cc(C(F)(F)F)ccc2nc1CBr too.
1.04 µM (active)

Note, next up: CC1CC/C(=C\c2ccc(N(C)C)cc2)C2=C1C(c1ccc(N(C)C)cc1)NC(=S)N2 (centres undefined)
> 100 µM (inactive)

# repeat for N#CCN(Cc1ccccc1)[C@H]1CCC[C@]1(O)/C=C/c1ccc2c(c1)OCO2
16.4 µM (inactive)

Entry to check: CCOC(=O)CO/N=C\C1=CC(=O)C2CC1C2(C)C (centres undefined)
> 100 µM (inactive)

Then what about the compound O=C(NCCCl)SCCO ?
> 100 µM (inactive)

Similarly, COc1c(C)c(O)c2c(c1C)OC(c1ccccc1)CC2=O (centres undefined) ?
31.4 µM (inactive)

====

Tested on: U-251
protocol notes: NCI tumour cell line growth inhibition, 48 h
Calls of active or inactive are those of the source. No stated cut-off is given here; in the data, active = GI50 up to about 1.1 µM and inactive = higher.
Select the correct class. Options are True for active, False for inactive and nothing else.

1) Cc1cc(C)nc(/C(=N\NC(N)=O)C(=O)Nc2nc3ccc(C)cc3s2)c1 ... False

Name the outcome recorded for COc1cc(NC=C2C(=O)OC(C)(C)OC2=O)c(OC)c(C)c1OC in the assay.
False

Please do the same for COc1c(C)c(O)c2c(c1C)OC(c1ccccc1)CC2=O (configuration not stated) as well.
False

Continue with C=C(C=O)c1c2c(nc3ccccc13)C(=O)c1ccccc1C2=O
True

Now consider CC1=CC[C@H](C(C)C)C(C(O)[C@@H](C)O[Si](c2ccccc2)(c2ccccc2)C(C)(C)C)C1=O (some centres not stated) and answer again.
False

Next compound up: Cc1nsc2cc(Cl)n(C)c(=O)c12
False

Now the compound CCOC(=O)NN(C(=O)OCC)c1ccc(/N=N/c2ccc(OC)cc2)n1C
False

====

Listed below: GI50 values for each entry.
System: SK-MEL-28
protocol notes: NCI tumour cell line growth inhibition, 48 h
Calls of active or inactive are those of the source. Rule as the data show it: active = GI50 up to about 1.1 µM and inactive = higher.

// below: answered compounds
1) COc1cc(C2c3cc4c(cc3OC(NN)C2C)OCO4)cc(OC)c1OC (centres undefined) ... 50.8 µM (inactive)
2) O=c1/c(=C/c2ccccc2[N+](=O)[O-])sc2nnc(-c3ccco3)n12 ... 21.8 µM (inactive)
3) CN1N=CSC12C(=O)N(c1ccccc1)C(=O)N2c1ccccc1 (centres undefined) ... > 100 µM (inactive)

Note: attention shifts to another entry.
Request: GI50, test system SK-MEL-28, entry CC(=O)OCc1c(C)c2ccccc2n1C(C)=O
> 100 µM (inactive)

====

System: OVCAR-8
protocol notes: NCI tumour cell line growth inhibition, 48 h
Activity calls are given as the source filed them. Cut-off read from the data, not from the text of the source: active = GI50 up to about 1.1 µM and inactive = higher.
The entries below come with measured GI50 values attached.

1. CC(C)(Oc1ccc(C(=O)c2ccc(Cl)cc2)cc1Cl)C(=O)N1CCN(c2ccccc2)CC1 ... > 100 µM (inactive)
2. C=C1CC(COc2ccc3c(C)c(C)c(=O)oc3c2C)(c2ccccc2)OC1=O (stereo not drawn) ... 1.72 µM (inactive)

Query (compound): O=C1/C(=C/C=C/c2ccccc2)CCC1CNc1ccc(Br)cc1 (stereo not drawn) ; field requested: GI50
> 100 µM (inactive)
